Source listed as paper PMC9092470.

Could you please report measured pKd for the items listed next?
- target or system: GST-tagged p300 CH1 domain (residues 330–420) (UniProt Q09472)
- experiment: fluorescence polarisation; fluorescence anisotropy by the fluorescence of GFP; GFP-HIF-1α 776–826 variants with GST-p300; 25 mM Tris–HCl, 150 mM NaCl, 1 mM DTT, pH 7.4; 1:1 model, each p300 site of the GST dimer taken as independent
In plain terms, pKd is the concentration in mol/L turned into minus its base-10 logarithm.

Query :: Item GFP-tagged wt HIF-1α 776–826 C-TAD (domain or fragment, UniProt Q16665 776-826, looked up, source: recombinantly expressed as a fusion protein with GFP) SDLACRLLGQSMDESGLPQLTSYDCEVNAPIQGSRNLLQGEELLRALDQVN has what recorded pKd?
Result :: 7.26

Query :: Given the entry GFP-HIF-1α 776–826 D823A (domain or fragment, UniProt Q16665 776-826, looked up, As m3 with the stated change; also called HIF-1α D823A; source: recombinantly expressed as a fusion protein with GFP) SDLACRLLGQSMDESGLPQLTSYDCEVNAPIQGSRNLLQGEELLRALAQVN , report its measured pKd.
Result :: 6.72

Query :: # query: pKd of entry GFP-HIF-1α 776–826 E801A (domain or fragment, UniProt Q16665 776-826, looked up, As m3 with the stated change; also called HIF-1α E801A; source: recombinantly expressed as a fusion protein with GFP) SDLACRLLGQSMDESGLPQLTSYDCAVNAPIQGSRNLLQGEELLRALDQVN
Result :: 6.64
